Could you please report measured MIC for the items listed next?
# Tested on: Candida tropicalis
# PROCEDURE_DETAILS: In vitro antifungal activity against Candida tropicalis (CT 750)
# Type: functional
Numbers only, in µg/mL.

Here are 8 compounds together with their reported answers.
CO[C@@H]1C[C@H](C[C@@H](C)[C@@H]2CC(=O)[C@H](C)/C=C(\C)[C@@H](O)[C@@H](OC)C(=O)[C@H](C)C[C@H](C)/C=C/C=C/C=C(\C)[C@H](N(O)C(N)=O)C[C@@H]3CC[C@@H](C)[C@@](O)(O3)C(=O)C(=O)N3CCCC[C@H]3C(=O)O2)CC[C@H]1O = 3.12
CO[C@H]1C[C@@H]2CC[C@@H](C)[C@@](O)(O2)C(=O)C(=O)N2CCCC[C@H]2C(=O)O[C@H]([C@H](C)C[C@@H]2CC[C@@H](OC(=O)N(C)O)[C@H](OC)C2)CC(=O)[C@H](C)/C=C(\C)[C@@H](O)[C@@H](OC)C(=O)[C@H](C)C[C@H](C)CCCC/C=C/1C = 3.12
CO[C@@H]1C[C@H](C[C@@H](C)[C@@H]2CC(=O)[C@H](C)/C=C(\C)[C@@H](O)[C@@H](OC)C(=O)[C@H](C)C[C@H](C)/C=C/C=C/C=C(\C)[C@@H](N(O)C(=O)N(C)C)C[C@@H]3CC[C@@H](C)[C@@](O)(O3)C(=O)C(=O)N3CCCC[C@H]3C(=O)O2)CC[C@H]1O = 50
CO[C@@H]1C[C@H](C[C@@H](C)[C@@H]2CC(=O)[C@H](C)/C=C(\C)[C@@H](O)[C@@H](OC)C(=O)[C@H](C)C[C@H](C)/C=C/C=C/C=C(\C)[C@H](N(O)C(=O)N3CCCCC3)C[C@@H]3CC[C@@H](C)[C@@](O)(O3)C(=O)C(=O)N3CCCC[C@H]3C(=O)O2)CC[C@H]1O = 6.25
CO[C@@H]1C[C@H](C[C@@H](C)[C@@H]2CC(=O)[C@H](C)/C=C(\C)[C@@H](O)[C@@H](OC)C(=O)[C@H](C)C[C@H](C)/C=C/C=C/C=C(\C)[C@H](N(O)C(=O)OCC(C)C)C[C@@H]3CC[C@@H](C)[C@@](O)(O3)C(=O)C(=O)N3CCCC[C@H]3C(=O)O2)CC[C@H]1O = 1.56
CCCOC(=O)N(O)[C@@H]1C[C@@H]2CC[C@@H](C)[C@@](O)(O2)C(=O)C(=O)N2CCCC[C@H]2C(=O)O[C@H]([C@H](C)C[C@@H]2CC[C@@H](O)[C@H](OC)C2)CC(=O)[C@H](C)/C=C(\C)[C@@H](O)[C@@H](OC)C(=O)[C@H](C)C[C@H](C)/C=C/C=C/C=C/1C = 1.56
CO[C@@H]1C[C@H](C[C@@H](C)[C@@H]2CC(=O)[C@H](C)/C=C(\C)[C@@H](O)[C@@H](OC)C(=O)[C@H](C)C[C@H](C)/C=C/C=C/C=C(\C)[C@H](O)C[C@@H]3CC[C@@H](C)[C@@](O)(O3)C(=O)C(=O)N3CCCC[C@H]3C(=O)O2)CC[C@H]1O = 1.56
CO[C@@H]1C[C@H](C[C@@H](C)[C@@H]2CC(=O)[C@H](C)/C=C(\C)[C@@H](O)[C@@H](OC)C(=O)[C@H](C)C[C@H](C)/C=C/C=C/C=C(\C)[C@H](N(O)C(=O)N(C)C)C[C@@H]3CC[C@@H](C)[C@@](O)(O3)C(=O)C(=O)N3CCCC[C@H]3C(=O)O2)CC[C@H]1O = 50

The following compounds each have a reported value; give each one's MIC.
1. CO[C@@H]1C[C@H](C[C@@H](C)[C@@H]2CC(=O)[C@H](C)/C=C(\C)[C@@H](O)[C@@H](OC)C(=O)[C@H](C)C[C@H](C)/C=C/C=C/C=C(\C)[C@@H](N(O)C(=O)OCC(C)C)C[C@@H]3CC[C@@H](C)[C@@](O)(O3)C(=O)C(=O)N3CCCC[C@H]3C(=O)O2)CC[C@H]1O
2. CCCOC(=O)N(O)[C@H]1C[C@@H]2CC[C@@H](C)[C@@](O)(O2)C(=O)C(=O)N2CCCC[C@H]2C(=O)O[C@H]([C@H](C)C[C@@H]2CC[C@@H](O)[C@H](OC)C2)CC(=O)[C@H](C)/C=C(\C)[C@@H](O)[C@@H](OC)C(=O)[C@H](C)C[C@H](C)/C=C/C=C/C=C/1C
3. CO[C@@H]1C[C@H](C[C@@H](C)[C@@H]2CC(=O)[C@H](C)/C=C(\C)[C@@H](O)[C@@H](OC)C(=O)[C@H](C)C[C@H](C)/C=C/C=C/C=C(\C)[C@@H](N(O)C(=O)N3CCOCC3)C[C@@H]3CC[C@@H](C)[C@@](O)(O3)C(=O)C(=O)N3CCCC[C@H]3C(=O)O2)CC[C@H]1O

1. 3.12
2. 6.25
3. 25
